List of GI50 tested on BaF3-tel-PDGFRα (stably expressing PDGFRα kinase).
READOUT_LABEL: GI50

{"columns": ["TEST_SMILES", "READOUT_LABEL", "ASSAY_RESULT"],
 "data": [
  ["Cc1ccc(NC(=O)c2cccc(Cl)n2)cc1-n1cc(-c2cncc(N3CC4(COC4)C3)c2)cn1", "GI50", "< 10 nM"],
  ["Cc1ccc(NC(=O)c2cc(C(F)(F)F)ccn2)cc1-n1cc(-c2cncc(N3CCN(C)CC3)c2)nn1", "GI50", "< 10 nM"],
  ["CN1CCN(c2cncc(-c3cn(-c4cc(NC(=O)c5cncc(C(F)(F)F)c5)ccc4F)nn3)c2)CC1", "GI50", "< 10 nM"],
  ["CN1CCN(c2cncc(-c3cn(-c4cc(NC(=O)c5cccc(C(F)(F)F)n5)ccc4F)nn3)c2)CC1", "GI50", "< 10 nM"],
  ["CN1CCN(c2cncc(-c3cn(-c4cc(NC(=O)c5cccc(F)n5)ccc4F)nn3)c2)CC1", "GI50", "< 10 nM"],
  ["Cc1ccc(NC(=O)c2ccnc(C(F)(F)F)c2)cc1-n1cc(-c2cnccc2OCC2CCOCC2)cn1", "GI50", "1.4 nM"],
  ["Cc1ccc(NC(=O)c2ccnc(C(F)(F)F)c2)cc1-n1cc(-c2cncc(OC3COC3)c2)cn1", "GI50", "< 0.3 nM"],
  ["Cc1ccc(NC(=O)c2ccnc(C(F)(F)F)c2)cc1-n1cc(-c2cncc(N3CCN(C)CC3)c2)cn1", "GI50", "2.8 nM"],
  ["Cc1ccc(NC(=O)c2cccc(C(F)(F)F)n2)cc1-n1cc(-c2cncc(N3CC4(COC4)C3)c2)nn1", "GI50", "< 10 nM"],
  ["Cc1ccc(NC(=O)c2cccc(C(F)(F)F)n2)cc1-n1cc(-c2cnccc2OC2COC2)cn1", "GI50", "< 0.3 nM"]
]}

----------
List of GI50 tested on BaF3-tel-PDGFRα (stably expressing PDGFRα kinase).

{"columns": ["TEST_SMILES", "GI50"],
 "data": [
  ["Cc1ccc(NC(=O)c2cc(C(F)(F)F)ccn2)cc1-n1cc(-c2cncc(N3CCN(C)CC3)c2)cn1", "< 0.0015 µM"],
  ["Cc1ccc(NC(=O)c2cccc(C(F)(F)F)n2)cc1-n1cc(-c2cncc(N3CCN(C)CC3)c2)cn1", "0.056 µM"],
  ["Cc1ccc(NC(=O)c2cccc(F)n2)cc1-n1cc(-c2cncc(N3CCN(C)CC3)c2)cn1", "< 0.0015 µM"],
  ["Cc1ccc(NC(=O)c2cccc(Cl)n2)cc1-n1cc(-c2cncc(N3CCN(C)CC3)c2)nn1", "< 0.01 µM"],
  ["Cc1ccc(NC(=O)c2cc(C(F)(F)F)ccn2)cc1-n1cc(-c2cncc(N3CC4(COC4)C3)c2)cn1", "< 0.01 µM"],
  ["Cc1ccc(NC(=O)c2cccc(Cl)n2)cc1-n1cc(-c2cncc(N3CCN(C)CC3)c2)cn1", "< 0.0015 µM"],
  ["Cc1ccc(NC(=O)c2cncc(C(F)(F)F)c2)cc1-n1cc(-c2cncc(N3CCN(C)CC3)c2)cn1", "< 0.0015 µM"],
  ["Cc1ccc(NC(=O)c2cccc(C(F)(F)F)n2)cc1-n1cc(-c2cncc(N3CC4(COC4)C3)c2)cn1", "< 0.01 µM"],
  ["Cc1ccc(NC(=O)c2cccc(F)n2)cc1-n1cc(-c2cncc(N3CC4(COC4)C3)c2)cn1", "< 0.01 µM"],
  ["Cc1ccc(NC(=O)c2cncc(C(F)(F)F)c2)cc1-n1cc(-c2cncc(N3CCN(C)CC3)c2)nn1", "< 0.01 µM"],
  ["CN1CCN(c2cncc(-c3cn(-c4cc(NC(=O)c5cccc(Cl)n5)ccc4F)nn3)c2)CC1", "< 0.01 µM"],
  ["Cc1ccc(NC(=O)c2ccnc(C(F)(F)F)c2)cc1-n1cc(-c2cnccc2OCCN2CCOCC2)cn1", "< 0.0003 µM"],
  ["Cc1ccc(NC(=O)c2ccnc(C(F)(F)F)c2)cc1-n1cc(-c2cncc(N3CC4(COC4)C3)c2)cn1", "< 0.01 µM"],
  ["Cc1ccc(NC(=O)c2cccc(C(F)(F)F)n2)cc1-n1cc(-c2cnccc2OCC2CCOCC2)cn1", "0.0016 µM"],
  ["Cc1ccc(NC(=O)c2cncc(C(F)(F)F)c2)cc1-n1cc(-c2cncc(N3CC4(COC4)C3)c2)cn1", "< 0.01 µM"]
]}
